This section presents binders with their documented Inhibition of Maximal Response values.
targetUnderTest: PTHR1 receptor
Sequence (P25961 whole entry): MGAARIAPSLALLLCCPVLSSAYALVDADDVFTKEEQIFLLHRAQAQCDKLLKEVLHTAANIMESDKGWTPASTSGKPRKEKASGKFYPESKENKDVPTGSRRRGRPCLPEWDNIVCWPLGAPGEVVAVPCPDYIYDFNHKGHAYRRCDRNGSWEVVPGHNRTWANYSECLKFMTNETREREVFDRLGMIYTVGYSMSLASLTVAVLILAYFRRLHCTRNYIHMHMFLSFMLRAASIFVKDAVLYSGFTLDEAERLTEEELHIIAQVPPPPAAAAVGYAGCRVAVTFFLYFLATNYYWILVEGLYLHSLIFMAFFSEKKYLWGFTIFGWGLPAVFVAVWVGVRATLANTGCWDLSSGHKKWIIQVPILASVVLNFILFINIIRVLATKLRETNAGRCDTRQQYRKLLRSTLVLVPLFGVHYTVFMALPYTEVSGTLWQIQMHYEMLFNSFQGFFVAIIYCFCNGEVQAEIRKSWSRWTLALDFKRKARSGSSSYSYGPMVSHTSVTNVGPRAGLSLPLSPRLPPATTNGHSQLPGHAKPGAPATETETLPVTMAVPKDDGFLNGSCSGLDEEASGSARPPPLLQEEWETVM
* marks the point of attachment. Palmitoyl = CCCCCCCCCCCCCCCC(=O)*
Lab book: enter the figure in %, no units written.

Please review the entries below; each comes with its answer.
{"binder": "Palmitoyl-TNAGRSDTRQQYAKLL-NH2 (SMILES CCCCCCCCCCCCCCCC(=O)N[C@H](C(=O)N[C@@H](CC(N)=O)C(=O)N[C@@H](C)C(=O)NCC(=O)N[C@@H](CCCNC(=N)N)C(=O)N[C@@H](CO)C(=O)N[C@@H](CC(=O)O)C(=O)N[C@H](C(=O)N[C@@H](CCCNC(=N)N)C(=O)N[C@@H](CCC(N)=O)C(=O)N[C@@H](CCC(N)=O)C(=O)N[C@@H](Cc1ccc(O)cc1)C(=O)N[C@@H](C)C(=O)N[C@@H](CCCCN)C(=O)N[C@@H](CC(C)C)C(=O)N[C@@H](CC(C)C)C(N)=O)[C@@H](C)O)[C@@H](C)O) [Compound 91]", "reading": 9.8}
{"binder": "Palmitoyl-RETNAGRSDTRQQYRK-NH2 (SMILES CCCCCCCCCCCCCCCC(=O)N[C@@H](CCCNC(=N)N)C(=O)N[C@@H](CCC(=O)O)C(=O)N[C@H](C(=O)N[C@@H](CC(N)=O)C(=O)N[C@@H](C)C(=O)NCC(=O)N[C@@H](CCCNC(=N)N)C(=O)N[C@@H](CO)C(=O)N[C@@H](CC(=O)O)C(=O)N[C@H](C(=O)N[C@@H](CCCNC(=N)N)C(=O)N[C@@H](CCC(N)=O)C(=O)N[C@@H](CCC(N)=O)C(=O)N[C@@H](Cc1ccc(O)cc1)C(=O)N[C@@H](CCCNC(=N)N)C(=O)N[C@@H](CCCCN)C(N)=O)[C@@H](C)O)[C@@H](C)O) [Compound 60]", "reading": 4.3}

Turning now to a further binder:
Entry Palmitoyl-SGRVLATKLRETNAGR-NH2 (SMILES CCCCCCCCCCCCCCCC(=O)N[C@@H](CO)C(=O)NCC(=O)N[C@@H](CCCNC(=N)N)C(=O)N[C@H](C(=O)N[C@@H](CC(C)C)C(=O)N[C@@H](C)C(=O)N[C@H](C(=O)N[C@@H](CCCCN)C(=O)N[C@@H](CC(C)C)C(=O)N[C@@H](CCCNC(=N)N)C(=O)N[C@@H](CCC(=O)O)C(=O)N[C@H](C(=O)N[C@@H](CC(N)=O)C(=O)N[C@@H](C)C(=O)NCC(=O)N[C@@H](CCCNC(=N)N)C(N)=O)[C@@H](C)O)[C@@H](C)O)C(C)C) [Compound 74] : reported Inhibition of Maximal Response = ?
22.2
